Test system: SKBR3 breast carcinoma
test method notes: In vitro cell proliferation inhibition, SKBR3
Type: cell-based
recorded conditions: Homo sapiens, SK-BR-3, read-out: IC50 SKBR3

compound structure | IC50 (nM)
CN(C)CCCO/N=C/c1c(N)ncnc1Nc1ccc2c(cnn2Cc2cccc(F)c2)c1 | 400

---

test method notes: Blood-Brain Barrier Penetration (concentration in plasma and brain)
Assay type: in vivo, Sprague Dawley rats
recorded conditions: male, Sprague Dawley, rat, brain, po, 10 mg/kg, p.o. 10 mg/kg, 120 min (brain), first of two lines so labelled; read-out: Concentration in Brain, Mean ± SEM

compound structure | concentration at 120 min, ng/g
Nc1ncnc(Nc2ccc(OCc3ccccc3)c(Cl)c2)c1/C=N/OCCN1CCOCC1 | 46.1

---

Tested on: NCI-N87 gastric carcinoma
test method notes: In vitro cell proliferation inhibition, NCI-N87
Format: cell-based
recorded conditions: Homo sapiens, NCI-N87, read-out: IC50 N87
readout label: IC50 (µM)

compound | numeric result
CN(C)CCCO/N=C/c1c(N)ncnc1Nc1ccc2c(cnn2Cc2cccc(F)c2)c1 [Cpd 70] | 0.3

---

tested system: HER-2 (Homo sapiens)
Construct: purchased Proqinase (Freiburg, Germany)
Sequence (P04626 679-1255): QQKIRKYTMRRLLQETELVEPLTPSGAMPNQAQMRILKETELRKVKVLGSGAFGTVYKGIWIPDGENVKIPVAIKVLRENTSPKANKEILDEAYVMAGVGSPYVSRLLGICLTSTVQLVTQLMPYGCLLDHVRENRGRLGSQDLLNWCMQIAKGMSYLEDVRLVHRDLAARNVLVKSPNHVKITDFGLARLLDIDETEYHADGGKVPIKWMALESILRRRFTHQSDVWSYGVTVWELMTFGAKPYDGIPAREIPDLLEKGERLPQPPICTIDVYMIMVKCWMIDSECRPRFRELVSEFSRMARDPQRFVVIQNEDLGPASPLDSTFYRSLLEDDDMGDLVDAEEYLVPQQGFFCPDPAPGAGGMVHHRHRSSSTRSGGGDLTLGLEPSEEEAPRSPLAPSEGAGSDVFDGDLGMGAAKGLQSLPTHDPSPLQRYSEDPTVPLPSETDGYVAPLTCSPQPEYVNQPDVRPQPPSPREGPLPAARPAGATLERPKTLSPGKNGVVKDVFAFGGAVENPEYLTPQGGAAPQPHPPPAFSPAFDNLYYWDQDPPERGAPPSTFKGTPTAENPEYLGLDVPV
test method notes: HER-2 Kinase Assay;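 note: HER2 kinase reaction read by scintillation counting, inhibition scaled between maximum and minimum signals set on each plate, IC50 from inhibition against log concentration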
Type: biochemical
recorded conditions: read-out: HER2 IC50
A collection of molecules and their measured IC50

molecule | IC50 / µM
Nc1ncnc(Nc2ccc3c(cnn3Cc3cccc(F)c3)c2)c1/C=N/OCCOc1ccccc1 [Cpd 31] | 0.3
CO/N=C/c1c(N)ncnc1Nc1ccc(Oc2cccnc2)c(C)c1 [Cpd 13] | 0.1
CO/N=C/c1c(N)ncnc1Nc1ccc(OCc2ccccc2)cc1 [Cpd 25] | 0.3
COc1cc(Nc2ncnc(N)c2/C=N/OCC(=O)N2CCOCC2)ccc1Oc1ccccc1 [Cpd 8] | 0.7
Nc1ncnc(Nc2ccc(OCc3ccccc3)c(Cl)c2)c1/C=N/O [Cpd 77] | 0.1
Nc1ncnc(Nc2ccc3c(cnn3Cc3cccc(F)c3)c2)c1/C=N/OCCCO [Cpd 85] | 0.02
Nc1ncnc(Nc2ccc(OCc3cccc(F)c3)c(Cl)c2)c1/C=N/O [Cpd 79] | 0.01
Nc1ncnc(Nc2ccc3c(ccn3Cc3cccc(F)c3)c2)c1/C=N/OCCN1CCOCC1 [Cpd 101] | 0.06
CCO/N=C/c1c(N)ncnc1Nc1ccc(OCc2ccccc2)c(Cl)c1 [Cpd 37] | 0.09
Nc1ncnc(Nc2ccc3c(ccn3Cc3cccc(F)c3)c2)c1/C=N/O [Cpd 88] | 0.02
CCO/N=C/c1c(N)ncnc1Nc1ccc2c(cnn2Cc2ccccc2)c1 [Cpd 49] | 0.01

---

tested system: EGFR (Homo sapiens)
Construct: The intracellular portion of EGFR started at nucleotide 2189 (corresponding to amino acid 667) and ended at the termination codon
Sequence (P00533 669-1210 limits assumed): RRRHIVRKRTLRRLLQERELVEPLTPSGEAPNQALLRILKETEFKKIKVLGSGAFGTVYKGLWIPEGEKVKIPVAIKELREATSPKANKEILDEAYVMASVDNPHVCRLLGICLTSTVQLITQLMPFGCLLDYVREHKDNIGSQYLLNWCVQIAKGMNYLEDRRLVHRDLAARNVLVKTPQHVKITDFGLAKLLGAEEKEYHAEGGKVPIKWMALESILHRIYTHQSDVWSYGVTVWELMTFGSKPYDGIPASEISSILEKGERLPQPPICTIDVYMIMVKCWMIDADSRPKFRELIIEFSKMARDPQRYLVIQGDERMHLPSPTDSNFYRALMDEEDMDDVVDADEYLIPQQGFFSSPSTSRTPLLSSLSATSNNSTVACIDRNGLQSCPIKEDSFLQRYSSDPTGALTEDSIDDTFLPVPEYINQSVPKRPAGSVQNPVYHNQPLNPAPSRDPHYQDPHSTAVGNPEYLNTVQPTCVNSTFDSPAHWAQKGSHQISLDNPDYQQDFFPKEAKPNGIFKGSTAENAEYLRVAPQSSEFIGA
test method notes: EGFR Kinase Assay;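 note: recombinant GST-tagged EGFR expressed in Sf9 cells, phosphorylating biotinylated polyGluTyr with γ-33P ATP on Streptavidin Flashplates, 1 h at 30 °C, scintillation counting, inhibition relative to plate maximum and minimum signals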
Sorting guide: entries reporting IC50 beneath 0.06 µM go in the condition met pile, the rest go in the condition not met pile.

compound structure | class name
Nc1ncnc(Nc2ccc3c(cnn3Cc3cccc(F)c3)c2)c1/C=N/Oc1ccccc1 | condition met
CCO/N=C/c1c(N)ncnc1Nc1ccc2c(ccn2Cc2cccc(F)c2)c1 | condition met
CCO/N=C/c1c(N)ncnc1Nc1ccc(OCc2cccc(F)c2)c(OC)c1 | condition not met
CCO/N=C/c1c(N)ncnc1Nc1ccc2c(cnn2Cc2ccc(F)cc2)c1 | condition not met
CO/N=C/c1c(N)ncnc1Nc1cccc(Cl)c1 | condition met
CCO/N=C/c1c(N)ncnc1N[C@@H](C)c1ccccc1 | condition met
COCCO/N=C/c1c(N)ncnc1Nc1ccc(OCc2ccccc2)c(Cl)c1 | condition met
CCO/N=C/c1c(N)ncnc1Nc1ccc2c(cnn2Cc2ccccc2)c1 | condition met
CCO/N=C/c1c(N)ncnc1Nc1ccc2c(cnn2Cc2cccc(OC)c2)c1 | condition not met
Nc1ncnc(Nc2ccc3c(cnn3Cc3cccc(F)c3)c2)c1/C=N/OCCN1CCOCC1 | condition met
CO/N=C/c1c(N)ncnc1Nc1ccc(OC)c(Cl)c1 | condition not met
Nc1ncnc(Nc2ccc3c(cnn3Cc3cccc(F)c3)c2)c1/C=N/OCCCN1CCCCC1 | condition met
Nc1ncnc(Nc2ccc(OCc3cc(F)cc(F)c3)c(Cl)c2)c1/C=N/O | condition met
CCNc1ncnc(Nc2ccc(OCc3cccc(F)c3)c(Cl)c2)c1/C=N/OC | condition not met
Nc1ncnc(Nc2ccc3c(ccn3Cc3cccc(F)c3)c2)c1/C=N/OCCCO | condition met
CO/N=C/c1c(N)ncnc1Nc1ccc2c(c1)OCO2 | condition not met

---

tested system: HER-2 (Homo sapiens)
pIC50: −log10 of the molar value.
readout label: pIC50

compound | tested system | readout label | relational operator | numeric result
CO/N=C/c1c(N)ncnc1Nc1ccc(Oc2ccccc2)cc1 | HER-2 (Homo sapiens) | pIC50 | = | 6.70
Nc1ncnc(Nc2ccc3c(cnn3Cc3cccc(F)c3)c2)c1/C=N/Oc1ccccc1 | HER-2 (Homo sapiens) | pIC50 | = | 6.70
Nc1ncnc(Nc2ccc3c(cnn3Cc3cccc(F)c3)c2)c1/C=N/OCCN1CCCCC1 | HER-2 (Homo sapiens) | pIC50 | = | 7.00
Nc1ncnc(Nc2ccc(OCc3cccc(F)c3)c(Cl)c2)c1/C=N/OCCN1CCOCC1 | HER-2 (Homo sapiens) | pIC50 | = | 8.10
CO/N=C/c1c(N)ncnc1Nc1ccc2c(c1)CCC2 | HER-2 (Homo sapiens) | pIC50 | = | 4.85
Nc1ncnc(Nc2ccc(OCc3ccccc3)c(Cl)c2)c1/C=N/OCCN1CCOCC1 | HER-2 (Homo sapiens) | pIC50 | = | 7.22
C=CCO/N=C/c1c(N)ncnc1Nc1ccc2c(cnn2Cc2cccc(F)c2)c1 | HER-2 (Homo sapiens) | pIC50 | = | 8.00
CCNc1ncnc(Nc2ccc3c(cnn3Cc3cccc(F)c3)c2)c1/C=N/OC | HER-2 (Homo sapiens) | pIC50 | = | 4.97
CO/N=C/c1c(N)ncnc1Nc1cccc(OCc2ccccc2)c1 | HER-2 (Homo sapiens) | pIC50 | = | 5.26
COCCO/N=C/c1c(N)ncnc1Nc1ccc(OCc2ccccc2)c(Cl)c1 | HER-2 (Homo sapiens) | pIC50 | = | 7.30
CO/N=C/c1c(N)ncnc1Nc1ccc2c(c1)OCO2 | HER-2 (Homo sapiens) | pIC50 | = | 4.55
CON=Cc1c(N)ncnc1NC1CCc2ccccc21 (centres unmarked) | HER-2 (Homo sapiens) | pIC50 | = | 5.61
CON=Cc1c(N)ncnc1Nc1ccc(N2CCOCC2)nc1 | HER-2 (Homo sapiens) | pIC50 | < | 4.00
CN(C)CCCO/N=C/c1c(N)ncnc1Nc1ccc2c(cnn2Cc2cccc(F)c2)c1 | HER-2 (Homo sapiens) | pIC50 | = | 7.70
CCO/N=C/c1c(N)ncnc1N[C@@H](C)c1ccccc1 | HER-2 (Homo sapiens) | pIC50 | = | 8.00
CO/N=C/c1c(N)ncnc1Nc1ccc(Oc2ccccc2)c(OC)c1 | HER-2 (Homo sapiens) | pIC50 | = | 7.00
CCO/N=C/c1c(N)ncnc1Nc1ccc2c(cnn2Cc2cccc(C#N)c2)c1 | HER-2 (Homo sapiens) | pIC50 | = | 7.40
CO/N=C/c1c(N)ncnc1Nc1ccc(OCc2cc(F)cc(F)c2)c(Cl)c1 | HER-2 (Homo sapiens) | pIC50 | = | 6.00
N#Cc1c(N)ncnc1Nc1ccc(OCc2ccccc2)c(Cl)c1 | HER-2 (Homo sapiens) | pIC50 | = | 7.00
CON=Cc1c(N)ncnc1Nc1ccc(OC)cc1 | HER-2 (Homo sapiens) | pIC50 | = | 5.10

---

test method notes: Blood-Brain Barrier Penetration (concentration in plasma and brain)
Format: in vivo, Sprague Dawley rats
recorded conditions: male, Sprague Dawley, rat, plasma, po, 10 mg/kg, p.o. 10 mg/kg, 60 min (plasma), male Sprague Dawley rats; read-out: Concentration in Plasma, Mean ± SEM
readout label: concentration at 60 min

compound | result
Nc1ncnc(Nc2ccc(OCc3ccccc3)c(Cl)c2)c1/C=N/OCCN1CCOCC1 [Cpd 78] | 73.6 ng/mL
